Below are molecules with their IC50 as measured on S. Agalactiae DltA (Streptococcus agalactiae serotype III).
Sequence (Q8VM67 whole entry): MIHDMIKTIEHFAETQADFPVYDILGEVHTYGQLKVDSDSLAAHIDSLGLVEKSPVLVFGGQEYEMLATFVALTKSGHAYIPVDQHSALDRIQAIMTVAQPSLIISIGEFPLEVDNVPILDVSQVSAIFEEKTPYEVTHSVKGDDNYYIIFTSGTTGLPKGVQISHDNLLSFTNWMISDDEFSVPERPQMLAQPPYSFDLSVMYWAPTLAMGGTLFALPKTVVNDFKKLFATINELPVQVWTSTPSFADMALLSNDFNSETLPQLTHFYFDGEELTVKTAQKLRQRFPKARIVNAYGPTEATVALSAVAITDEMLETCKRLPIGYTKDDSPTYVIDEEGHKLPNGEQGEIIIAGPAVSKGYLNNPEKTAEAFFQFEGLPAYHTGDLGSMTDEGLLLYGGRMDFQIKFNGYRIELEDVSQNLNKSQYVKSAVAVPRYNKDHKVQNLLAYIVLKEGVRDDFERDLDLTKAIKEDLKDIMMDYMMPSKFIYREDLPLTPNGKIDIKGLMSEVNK
Answers are plain numbers, in nM.

molecule | measurementUnit | endpointResult
O=c1[nH]cnc2c(-c3ccc4c(c3)ncn4C3CCCCC3)cn(C3CCC(O)C3)c12 (racemic) [Example 71A] | nM | 2700
O=c1[nH]cnc2c(-c3ccc4c(c3)ncn4C3CCCCC3)cn([C@H]3CCCNC3)c12 [Example 76] | nM | 1200
O=c1[nH]cnc2c(-c3ccc4c(c3)ncn4C3CCCCC3)sc(N3CCC(CCO)C3)c12 (centres unmarked) [Example 11] | nM | 5400

Quick request: IC50 for each listed item, please.
1. O=c1[nH]cnc2c(-c3ccc4c(c3)ncn4C3CCCCC3)sc(N3C[C@H](CO)[C@@H](CO)C3)c12 [Example 35]
2. O=c1[nH]cnc2c(-c3ccc4c(c3)ncn4C3CCCCC3)sc(N3CC[C@H](CO)C3)c12 [Example 7]
3. O=c1[nH]cnc2c(-c3ccc4c(c3)ncn4C3CCCCC3)cn(CCCCCO)c12 [Example 68]
4. O=c1[nH]cnc2c(-c3ccc4c(c3)ncn4C3CCCCC3)sc(N3C[C@@H]4[C@@H](CO)[C@@H]4C3)c12 [Example 30]

1: 870; 2: 3200; 3: 4500; 4: 2000

Dear colleague, please send me the reported IC50 for O=c1[nH]cnc2c(-c3ccc4c(c3)ncn4C3CCCOC3)sc(N3CC[C@H](CO)C3)c12 (some centres unmarked) [Example 49] when you can. 3300

###

# studySystem: UniProtKB Q3XZT7
# Sequence (Q3XZT7 1-504): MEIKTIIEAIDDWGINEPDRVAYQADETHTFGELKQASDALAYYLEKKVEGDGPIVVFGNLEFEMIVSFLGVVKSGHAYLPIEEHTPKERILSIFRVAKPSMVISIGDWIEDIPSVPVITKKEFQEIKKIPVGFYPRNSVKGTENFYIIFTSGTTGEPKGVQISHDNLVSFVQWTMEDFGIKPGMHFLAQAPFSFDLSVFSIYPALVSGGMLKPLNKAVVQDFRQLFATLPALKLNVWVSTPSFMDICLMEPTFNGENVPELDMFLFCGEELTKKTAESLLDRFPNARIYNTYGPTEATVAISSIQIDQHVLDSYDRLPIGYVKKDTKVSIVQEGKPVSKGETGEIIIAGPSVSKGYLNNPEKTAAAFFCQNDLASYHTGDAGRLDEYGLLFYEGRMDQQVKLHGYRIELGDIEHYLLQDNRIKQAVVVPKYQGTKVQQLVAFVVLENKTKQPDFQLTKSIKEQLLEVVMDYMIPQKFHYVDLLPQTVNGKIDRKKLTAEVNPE
# experimentNotes: in vitro DltA activity assay (luminescence, IC50 determination)
# Format: biochemical
# conditionContext: recombinant DltA, 30min preincubation at room temperature, 0.5mM D-Alanine, 0.5-5µM ATP; read-out: E. feacium DltA IC50
Where a name gives a salt, the structure may show the parent alone.
Rule for this label: 1 (yes) means IC50 is less than 300 nM; 0 (no) means IC50 is at least 300 nM.

Previously resolved entries follow.
compound | cat
O=c1[nH]cnc2c(-c3ccc4c(c3)ncn4C3CCCCC3)cn([C@H]3CC[C@@H](CO)CC3)c12 [Example 74] | 1 (yes)
CCn1cnc2cc(-c3sc(N4CC[C@H](CO)C4)c4c(=O)[nH]cnc34)ccc21 [Example 45] | 0 (no)
O=c1[nH]cnc2c(-c3ccc4c(c3)ncn4C3CCCCC3)sc(N3CCC(CO)(CO)C3)c12 [Example 13] | 1 (yes)
O=c1[nH]cnc2c(-c3ccc4c(c3)ncn4C3CCCCC3)cn([C@H]3CCCNC3)c12 [Example 76] | 0 (no)
O=c1[nH]cnc2c(-c3ccc4c(c3)ncn4C3CCCCC3)sc(N3CCNCC3)c12 [Example 28, hydrochloride] | 1 (yes)

Please determine if O=c1[nH]cnc2c(-c3ccc4c(c3)ncn4C3CCCCC3)sc(N3C[C@H](CO)[C@@H](CO)C3)c12 [Example 35] is below 300 nM in terms of IC50. 1 (yes)

Please determine if O=c1[nH]cnc2c(-c3ccc4c(c3)ncn4C3CCCCC3)sc(C3=CCNCC3)c12 [Example 37, hydrochloride] is below 300 nM in terms of IC50. 1 (yes)

Please determine if O=c1[nH]cnn2c(-c3ccc4c(c3)ncn4C3CCCCC3)cc(N3CC[C@H](CO)C3)c12 [Example 63] is below 300 nM in terms of IC50. 0 (no)

This collection of values is drawn from patent EP2913333A1.
